Taken from patent US20120245161A1.

- ASSAY SYSTEM: recombinant human beta tryptase (Homo sapiens, UniProt P20231)
- Construct: made in house; host or cells: yeast cells
- Sequence (P20231 31-275): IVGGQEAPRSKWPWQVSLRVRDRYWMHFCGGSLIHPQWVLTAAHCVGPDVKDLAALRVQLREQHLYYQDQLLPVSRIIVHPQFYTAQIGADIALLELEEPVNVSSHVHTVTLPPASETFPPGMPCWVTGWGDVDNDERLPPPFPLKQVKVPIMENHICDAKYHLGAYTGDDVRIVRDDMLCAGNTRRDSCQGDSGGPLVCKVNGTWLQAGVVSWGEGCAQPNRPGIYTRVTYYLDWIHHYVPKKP
- TEST: beta-Tryptase inhibition, chromogenic enzyme assay (substrate S2366, read at 405 nm)
- Assay type: biochemical
- DETAILS: Tryptase Ki (nM), Ki calculated from IC50: Ki=IC50/(1+[Substrate]/Km); 0.5 mM substrate, room temperature
Where a name gives a salt, the structure may show the parent alone.
ENDPOINT NAME: Ki (nM)
Record the value in nM, omitting the unit from your answer.

## Task // Ki lookup, key: COCCn1cc(C(=O)N2CCC(c3cc(CN)ccc3F)CC2)c2c(NS(=O)(=O)c3cccnc3)cccc21 [Example 106, hydrochloride]
## Result 149

## Task What value of measured Ki is listed for NCc1ccc(F)c(C2CCN(C(=O)c3cn(CCOC(F)(F)F)c4c(F)cccc34)CC2)c1 [Example 86, hydrochloride] ?
## Result 80

## Task What measured Ki goes with COCCn1cc(C(=O)N2CCC(c3cc(CN)ccc3F)CC2)c2c(C3CC3)cccc21 [Example 52, hydrochloride] ?
## Result 49

## Task Using the record for COCCn1cc(C(=O)N2CCC(c3ccc(Cl)c(CN)c3)CC2)c2cccc(C)c21 [Example 118, hydrochloride] , report its Ki.
## Result 832

## Task Using the record for COCCn1cc(C(=O)N2CCC(c3cc(CN)ccc3OCCc3ccccc3)CC2)c2cccc(C)c21 [Example 115, hydrochloride] , report its Ki.
## Result 390

## Task Entry NCc1ccc(F)c(C2CCN(C(=O)c3cn(CCOC(F)(F)F)c4c(Cl)cccc34)CC2)c1 [Example 87, hydrochloride] has what Ki?
## Result 207

## Task Returns the measured Ki for the input compound. Input: COCCn1cc(C(=O)N2CCC(c3cc(CN)ccc3F)CC2)c2c(NC(=O)N(C)C)cccc21
## Result 17

## Task Fill in: Ki of COCCn1cc(C(=O)N2CCC(c3cc(CN)ccc3OCC(N)=O)CC2)c2cccc(C)c21 [Example 31, hydrochloride] is ___
## Result 306

## Task Find the recorded Ki belonging to COCCn1cc(C(=O)N2CCC(c3cc(CN)ccc3F)CC2)c2cccc(OC(F)F)c21 [Example 14, hydrochloride] and report it.
## Result 83

## Task Request the reported Ki associated with NCc1ccc(F)c(C2CCN(C(=O)c3cn(CCO)c4c(OC(F)(F)F)cccc34)CC2)c1 [Example 22, hydrochloride]
## Result 390

----------
- ASSAY SYSTEM: recombinant human beta tryptase (Homo sapiens, UniProt P20231)
- Construct: made in house; host or cells: yeast cells
- TEST: beta-Tryptase inhibition, chromogenic enzyme assay (substrate S2366, read at 405 nm)
- Type: biochemical
- DETAILS: Tryptase Ki (nM), Ki calculated from IC50: Ki=IC50/(1+[Substrate]/Km); 0.5 mM substrate, room temperature
Structures can show the parent of a compound that is named as a salt.
ENDPOINT NAME: Ki (nM)
Use nM as the unit, but write only the number.

## Task So what's the measured Ki for this one? COCCn1cc(C(=O)N2CCC(c3cc(CN)ccc3F)CC2)c2c(C(=O)N3CCCC3)cccc21 [Example 108, hydrochloride]
## Result 15

## Task Ki lookup needed for COCCn1cc(C(=O)N2CCC(c3cc(CN)ccc3F)CC2)c2c(-c3cccc(F)c3)cccc21 [Example 63, hydrochloride] , thanks.
## Result 46

## Task Which Ki value belongs to COCCn1cc(C(=O)N2CCC(c3cc(CN)ccc3F)CC2)c2cccc(C(F)(F)F)c21 [Example 11, hydrochloride] ?
## Result 56

## Task Which Ki value belongs to COCCn1cc(C(=O)N2CCC(c3cccc(CN)c3F)CC2)c2cccc(C)c21 [Example 117, hydrochloride] ?
## Result 756

## Task Could you share which Ki value was measured for Cc1cccc2c(C(=O)N3CCC(c4cc(CN)ccc4F)CC3)cn(CCCF)c12 [Example 16, hydrochloride] ?
## Result 97

## Task Look up Ki for this compound: COCCn1cc(C(=O)N2CCC(c3cc(CN)ccc3OCC(=O)N(C)C)CC2)c2cccc(OC(F)(F)F)c21 [Example 29, hydrochloride]
## Result 331

## Task Name the recorded Ki for CNC(=O)COc1ccc(CN)cc1C1CCN(C(=O)c2cn(CCOC)c3c(OC(F)(F)F)cccc23)CC1 [Example 28, hydrochloride] .
## Result 538

----------
- ASSAY SYSTEM: recombinant human beta tryptase (Homo sapiens, UniProt P20231)
- Construct: made in house; host or cells: yeast cells
- TEST: beta-Tryptase inhibition, chromogenic enzyme assay (substrate S2366, read at 405 nm)
- Assay type: biochemical
- DETAILS: Tryptase Ki (nM), Ki calculated from IC50: Ki=IC50/(1+[Substrate]/Km); 0.5 mM substrate, room temperature
Counter-ions that a name gives are not always drawn.
Consider the cut-off 100 nM. If the recorded Ki is strictly smaller, the label is fulfilled; if not, the label is not fulfilled.

## Task For COCCn1cc(C(=O)N2CCC(c3ccc(F)c(CN)c3)CC2)c2cccc(C)c21 [Example 112, hydrochloride] , is the recorded Ki below the cut-off of 100 nM?
## Result not fulfilled

## Task Please indicate whether the reported Ki of COCCn1cc(C(=O)N2CCC(c3cc(CN)ccc3F)CC2)c2c(NC(=O)C3CCOCC3)cccc21 [Example 95, hydrochloride] is strictly below 100 nM.
## Result fulfilled

## Task Lab note: Ki threshold 100 nM. Does this compound come in strictly under it? COCCn1cc(C(=O)N2CCC(c3cc(CN)ccc3F)CC2)c2c(N)cccc21 [Example 75, hydrochloride]
## Result fulfilled

## Task Does this compound meet the criterion Ki < 100 nM? CCCCn1cc(C(=O)N2CCC(c3cc(CN)ccc3F)CC2)c2cccc(OC(F)(F)F)c21 [Example 43, hydrochloride]
## Result not fulfilled

## Task Quick check: Ki of CCOc1cccc2c1c(C(=O)N1CCC(c3cc(CN)ccc3F)CC1)cn2CCOC [Example 57, hydrochloride] under 100 nM?
## Result fulfilled

## Task Please indicate whether the reported Ki of NCc1ccc(F)c(C2CCN(C(=O)c3cn(CCOC(F)(F)F)c4ccccc34)CC2)c1 [Example 81, hydrochloride] is strictly below 100 nM.
## Result not fulfilled

## Task Problem: For the compound COCCn1cc(C(=O)N2CCC(c3cc(CN)ccc3F)CC2)c2c(C(=O)N3CCOCC3)cccc21.Cl [Example 59, hydrochloride] , is Ki under 100 nM?
## Result fulfilled

----------
Record form. Attribute: Ki. Fill in for each entry.
- ASSAY SYSTEM: recombinant human beta tryptase (Homo sapiens, UniProt P20231)
- Construct: made in house; host or cells: yeast cells
- TEST: beta-Tryptase inhibition, chromogenic enzyme assay (substrate S2366, read at 405 nm)
- Assay type: biochemical
- DETAILS: Tryptase Ki (nM), Ki calculated from IC50: Ki=IC50/(1+[Substrate]/Km); 0.5 mM substrate, room temperature
Where a name gives a salt, the structure may show the parent alone.
Numbers only here, please. The scale is nM.

## Task // returns reported Ki for input COCCn1cc(C(=O)N2CCC(c3cc(CN)ccc3F)CC2)c2c(C(=O)N(C)C)cccc21 [Example 91, hydrochloride]
## Result 20

## Task Which Ki reading was recorded for the compound CCCn1cc(-c2cccc3c2c(C(=O)N2CCC(c4cc(CN)ccc4F)CC2)cn3CCOC)cn1 [Example 67, hydrochloride] ?
## Result 12

## Task # Ki lookup, item COCCn1cc(C(=O)N2CCC(c3cc(CN)ccc3F)CC2)c2c(OC3CC3)cccc21 [Example 58, hydrochloride]
## Result 108

## Task What Ki value was documented for this compound, Cc1cccc2c(C(=O)N3CCC(c4cc(CN)ccc4F)CC3)cn(CCC3CCCCN3C)c12 (stereo not shown) [Example 8, hydrochloride] ?
## Result 35

----------
- ASSAY SYSTEM: recombinant human beta tryptase (Homo sapiens)
- Construct: made in house; host or cells: yeast cells
- TEST: beta-Tryptase inhibition, chromogenic enzyme assay (substrate S2366, read at 405 nm)
- Assay type: biochemical
- DETAILS: Tryptase Ki (nM), Ki calculated from IC50: Ki=IC50/(1+[Substrate]/Km); 0.5 mM substrate, room temperature
Structures can show the parent of a compound that is named as a salt.
Kindly supply the reported Ki values for the records listed here.
# output: bare number, implied unit nM

## Task What does the data say about its Ki? Entry: COCCn1cc(C(=O)N2CCC(c3cc(CN)ccc3F)CC2)c2c(C(F)(F)F)cccc21 [Example 53, hydrochloride]
## Result 289

## Task # query: Ki of entry COCCn1cc(C(=O)N2CCC(c3cc(CN)ccc3C(F)(F)F)CC2)c2cccc(C)c21 [Example 110, hydrochloride]
## Result 1260

## Task What does the record list as Ki for Cc1cccc2c(C(=O)N3CCC(c4cccc(CN)c4)CC3)cn(CCN3CCOCC3)c12 [Example 2, hydrochloride] ?
## Result 234

## Task // lookup Ki for COCCn1cc(C(=O)N2CCC(c3cc(CN)ccc3F)CC2)c2c(Br)cccc21 [Example 48, hydrochloride]
## Result 125

## Task // Ki lookup, key: Cc1cccc2c(C(=O)N3CCC(c4cc(CN)ccc4F)CC3)cn(CCCc3cccnc3)c12 [Example 10, dihydrochloride]
## Result 175

## Task Data request, read-out Ki, for NCc1ccc(F)c(C2CCN(C(=O)c3cn(CCOC(F)(F)F)c4cccc(Br)c34)CC2)c1 [Example 79, hydrochloride]
## Result 935

## Task Which value of Ki has been reported for COCCn1cc(C(=O)N2CCC(c3cc(CN)ccc3F)CC2)c2c(-c3ccc(F)cc3)cccc21 [Example 71, hydrochloride] in the records?
## Result 49

## Task Quick one: Ki of NCc1ccc(F)c(C2CCN(C(=O)c3cn(CCc4ccccc4)c4ccccc34)CC2)c1 [Example 15, hydrochloride] ?
## Result 18

## Task Give the measured Ki of COCCn1cc(C(=O)N2CCC(c3cc(CN)ccc3F)CC2)c2c(F)cccc21 [Example 51, hydrochloride] .
## Result 54

## Task State the recorded Ki for this entry: COCCn1cc(C(=O)N2CCC(c3cc(CN)ccc3F)CC2)c2c(N(C)C)cccc21 [Example 77, hydrochloride]
## Result 57

## Task Fill in the blank: the reported Ki of COCCn1cc(C(=O)N2CCC(c3cc(CN)ccc3F)CC2)c2c(-c3ccc(OC(F)(F)F)cc3)cccc21 [Example 69, hydrochloride] is ____.
## Result 400

## Task // returns reported Ki for input COCCn1cc(C(=O)N2CCC(c3cc(CN)c(F)cc3F)CC2)c2cccc(C)c21 [Example 111, hydrochloride]
## Result 1020
